The reported numbers originate from paper PMC4036204.

SYSTEM UNDER TEST: T1, Metnase catalytic domain WT (UniProt Q53H47 446-684)
T1 sequence: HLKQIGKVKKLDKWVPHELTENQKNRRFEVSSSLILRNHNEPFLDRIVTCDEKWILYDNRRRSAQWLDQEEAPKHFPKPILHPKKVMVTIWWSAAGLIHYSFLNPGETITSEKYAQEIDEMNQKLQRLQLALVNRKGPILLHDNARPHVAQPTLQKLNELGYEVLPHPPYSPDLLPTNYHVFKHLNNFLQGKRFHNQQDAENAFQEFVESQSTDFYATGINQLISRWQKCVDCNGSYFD
PROTOCOL SUMMARY: fluorescence polarization; FP: 50 mM HEPES pH 7.0, 150 mM NaCl, 10 nM probe, temperature not stated; EMSA: 50 mM HEPES-KOH pH 7.8, 50 mM NaCl, 0.2 ug poly(dI:dC), 0.2 ug/ul BSA, room temperature 15 min
CONDITIONS USED: protein: recombinant; tags: N-terminal His tag removed by thrombin; label: 5' rhodamine on strand 1; blunt

BINDER	Kd
28-bp blunt TIR dsDNA (dsDNA, 5' C6-amino linker on strand 1) DNA 1: AACCGCAATTACTTTTGCACCAACCTAA DNA 2: TTAGGTTGGTGCAAAAGTAATTGCGGTT	4.7 µM
